Measured protein stability index accompanies every entry in the list below.
# System: Saccharomyces cerevisiae;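 note: PSI derived as read-weighted mean over the 8 sorting bins, only variants exceeding 10 total reads kept, mCherry placed adjacent to the peptide and sfGFP distal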
# PROTOCOL: protein stability index of tFT-peptide fusion in wild type (PSI (0-1 scale)); higher = more stable (slower turnover)
# CONDITIONS: genetic background: wild type

RESIDUE STRING	READOUT NAME	TEST VALUE
RVTHLDAIYFRI	protein stability index	0.471
AITLPMCPLLYR	protein stability index	0.529

Query :: What protein stability index value was documented for this sequence, `RVTRLDAIYFRH` ?
Result :: 0.604

Query :: What protein stability index value was documented for this sequence, `PDKRNMLIKLLN` ?
Result :: 0.0899

Query :: What protein stability index value was documented for this sequence, `CLVSLSILLFFR` ?
Result :: 0.183

Query :: What protein stability index value was documented for this sequence, `VRRAVGGWRLVG` ?
Result :: 0.145

Query :: What protein stability index value was documented for this sequence, `CTSCIYKFRTNN` ?
Result :: 0.163

Query :: What protein stability index value was documented for this sequence, `ARWRVGLWYGAS` ?
Result :: 0.603

Query :: What protein stability index value was documented for this sequence, `RVTRLSAIYFRI` ?
Result :: 0.22
